test: Solubility of compound at pH 7.4; type: physicochemical; settings: buffer
Catalogue of compounds with associated solubility

Before answering, review these 3 worked examples.
- Compound: "Cc1c(-c2ccc(N3CCC(F)(F)C3)cc2)[nH]c2cc(F)cc(F)c2c1=O"
  solubility: "< 1 µg/mL"
- Compound: "Cc1c(-c2ccc(N3CCCC(F)C3)cc2)[nH]c2cc(F)cc(F)c2c1=O (centres undefined)"
  solubility: "< 1 µg/mL"
- Compound: "Cc1c(-c2ccc(N3CC[C@H](F)C3)cc2)[nH]c2cc(F)cc(F)c2c1=O"
  solubility: "< 1 µg/mL"

Now examine the next entry.
GET /value?item= Cc1c(-c2ccc(-n3cccc3)cc2)[nH]c2cc(F)cc(F)c2c1=O &field=solubility returns 3.6 µg/mL

* * *

test: Half life in Wistar rat at 10 mg/kg administered via oral gavage after 24 hrs by LC-MS/MS analysis; assay type: ADME, organism-based; settings: in vivo
Quantity kind: half-life

GET /value?item= CC(=O)Oc1c(C)c(-c2ccc(N3CCC(F)(F)C3)cc2)nc2cc(F)cc(F)c12 &field=half-life returns 3.9 h

* * *

Catalogue of compounds with associated half-life at 1 µM
assay: Half life in rat plasma at 1 uM measured up to 3 hrs by LC-MS/MS analysis; format: ADME, cell-free

Before answering, review these 3 worked examples.
- Compound: "Cc1c(-c2ccc(-n3cccc3)cc2)[nH]c2cc(F)cc(F)c2c1=O"
  half-life at 1 µM: "> 3 h"
- Compound: "Cc1c(-c2ccc(N3CC[C@H](F)C3)cc2)[nH]c2cc(F)cc(F)c2c1=O"
  half-life at 1 µM: "> 3 h"
- Compound: "Cc1c(-c2ccc(N3CCC(F)(F)C3)cc2)[nH]c2cc(F)cc(F)c2c1=O"
  half-life at 1 µM: "> 3 h"

Now examine the next entry.
GET /value?item= Cc1c(-c2ccc(N3CCCC(F)C3)cc2)[nH]c2cc(F)cc(F)c2c1=O (centres undefined) &field=half-life at 1 µM returns > 3 h

* * *

target: UniProt P11712; assay: Inhibition of human microsomal CYP2C9 expressed in insect cells at 10 uM using OOMR as substrate measured every minute for 1 hr by fluorescence-based assay; format: ADME; details: probe OOMR
Sequence (P11712 whole entry): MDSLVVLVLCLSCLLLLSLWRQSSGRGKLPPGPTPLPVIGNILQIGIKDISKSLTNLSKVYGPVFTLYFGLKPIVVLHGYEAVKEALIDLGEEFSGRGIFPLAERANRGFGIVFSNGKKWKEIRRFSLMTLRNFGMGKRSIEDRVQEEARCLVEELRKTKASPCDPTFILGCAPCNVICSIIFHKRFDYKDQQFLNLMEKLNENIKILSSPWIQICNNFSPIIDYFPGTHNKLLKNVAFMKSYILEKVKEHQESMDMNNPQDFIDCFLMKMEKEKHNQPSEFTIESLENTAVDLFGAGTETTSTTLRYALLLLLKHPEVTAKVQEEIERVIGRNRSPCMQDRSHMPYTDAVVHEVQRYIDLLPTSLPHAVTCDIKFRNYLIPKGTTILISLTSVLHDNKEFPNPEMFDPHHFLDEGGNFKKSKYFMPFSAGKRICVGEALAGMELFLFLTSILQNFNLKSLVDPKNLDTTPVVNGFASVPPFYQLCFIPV
Quantity kind: inhibition at 1 h, 10 µM (%)
Give just the numeric value; % need not be written.

GET /value?item= Cc1c(-c2ccc(N3CCC(F)(F)C3)cc2)[nH]c2cc(F)cc(F)c2c1=O &field=inhibition at 1 h, 10 µM returns 0

* * *

test: Metabolic stability in mouse liver microsomes assessed as half life for metabolic turnover at 0.1 to 10 uM preincubated for 60 mins in presence of NADPH measured up to 60 mins by mass spectroscopic analysis; type: ADME, microsome
Catalogue of compounds with associated half-life at up to 10 µM
Give just the numeric value; min need not be written.

- Compound: "Cc1c(-c2ccc(N3CCCC(F)(F)C3)cc2)[nH]c2cc(F)cc(F)c2c1=O"
  Experimental result: 16.2
- Compound: "Cc1c(-c2ccc(-n3cccc3)cc2)[nH]c2cc(F)cc(F)c2c1=O"
  Experimental result: 20.7
- Compound: "Cc1c(-c2ccc(N3CCC(F)CC3)cc2)[nH]c2cc(F)cc(F)c2c1=O"
  Experimental result: 4.4

GET /value?item= Cc1c(-c2ccc(N3CCCC(F)C3)cc2)[nH]c2cc(F)cc(F)c2c1=O (stereo not given) &field=half-life at up to 10 µM returns 6.8

* * *

test: Aqueous solubility of compound; format: physicochemical; conditions: buffer
Label TRUE when solubility is at or above 1 µM; anything below gets FALSE.

State whether the measured solubility reaches 1 µM, counting equality as reaching it, for COc1cc2[nH]c(-c3ccc(N4CCCCC4)cc3)c(C)c(=O)c2cc1F TRUE

State whether the measured solubility reaches 1 µM, counting equality as reaching it, for Cc1c(-c2ccc(N3CCC[C@H]3CO)cc2)[nH]c2cc(F)cc(F)c2c1=O TRUE

State whether the measured solubility reaches 1 µM, counting equality as reaching it, for COc1ccc2c(=O)c(Cl)c(-c3ccc(N4CCCCC4)cc3)[nH]c2c1 FALSE

State whether the measured solubility reaches 1 µM, counting equality as reaching it, for Cc1c(-c2ccc(N3CCC[C@@H](C)C3)cc2)[nH]c2cc(F)cc(F)c2c1=O FALSE

* * *

experiment: Inhibition of replicating Mycobacterium tuberculosis H37Rv NDH assessed as cell growth inhibition after 7 days by MABA method; conditions: 168 h
Quantity kind: pIC50
// pIC50: -log10(molar conc.)

- Smiles: "COc1cc2[nH]c(-c3ccc(N4CCCCC4)cc3)c(C)c(=O)c2cc1F"
  Quantity kind: "pIC50"
  Experimental result: 6.28
- Smiles: "O=c1c(Cl)c(-c2ccc(N3CCCCC3)cc2)[nH]c2ccccc12"
  Quantity kind: "pIC50"
  Experimental result: 5.81
- Smiles: "Cc1c(-c2ccc(N3CCC[C@H]3CO)cc2)[nH]c2cc(F)cc(F)c2c1=O"
  Quantity kind: "pIC50"
  Experimental result: 5.80

GET /value?item= O=c1c(Br)c(-c2ccc(N3CCCCC3)cc2)[nH]c2ccccc12 &field=pIC50 returns 6.22

GET /value?item= Cc1c(-c2ccc(N3CCCCC3)cc2)[nH]c2ccccc2c1=O &field=pIC50 returns 5.82

GET /value?item= COc1ccc2c(=O)c(C)c(-c3ccc(N4CCCCC4)cc3)[nH]c2c1 &field=pIC50 returns 6.14

* * *

Catalogue of molecules with associated IC50
assay: Inhibition of replicating Mycobacterium tuberculosis H37Rv NDH assessed as cell growth inhibition after 7 days by MABA method; conditions: 168 h

Before answering, review these 2 worked examples.
- Smiles: "Cc1c(-c2ccc(NCc3ccccc3)cc2)[nH]c2cc(F)cc(F)c2c1=O"
  Quantity kind: "IC50"
  Experimental result: "> 10 µM"
- Smiles: "Cc1c(-c2ccc(N3CCCCC3)cc2)[nH]c2cc(F)ccc2c1=O"
  Quantity kind: "IC50"
  Experimental result: "> 10 µM"

Now examine the next entry.
GET /value?item= COc1cc2[nH]c(-c3ccc(-n4cc(F)c(F)c4)cc3)c(C)c(=O)c2cc1Cl &field=IC50 returns > 10 µM

* * *

test: Metabolic stability in rat liver microsomes assessed as half life for metabolic turnover at 0.1 to 10 uM preincubated for 60 mins in presence of NADPH measured up to 60 mins by mass spectroscopic analysis; type: ADME, microsome
Catalogue of molecules with associated half-life at up to 10 µM
Give just the numeric value; min need not be written.

Before answering, review these 2 worked examples.
- Molecule: "Cc1c(-c2ccc(N3CCCC(C)C3)cc2)[nH]c2cc(F)cc(F)c2c1=O (stereo not drawn)"
  half-life at up to 10 µM, min: 10.8
- Molecule: "Cc1c(-c2ccc(N3CCCC(F)C3)cc2)[nH]c2cc(F)cc(F)c2c1=O (stereo not drawn)"
  half-life at up to 10 µM, min: 10.1

GET /value?item= Cc1c(-c2ccc(N3CCCC(F)(F)C3)cc2)[nH]c2cc(F)cc(F)c2c1=O &field=half-life at up to 10 µM returns 13.7

GET /value?item= Cc1c(-c2ccc(N3CCC(F)CC3)cc2)[nH]c2cc(F)cc(F)c2c1=O &field=half-life at up to 10 µM returns 8.4

GET /value?item= Cc1c(-c2ccc(N3CCC(F)(F)C3)cc2)[nH]c2cc(F)cc(F)c2c1=O &field=half-life at up to 10 µM returns 61.6

GET /value?item= Cc1c(-c2ccc(N3CCC[C@H](C)C3)cc2)[nH]c2cc(F)cc(F)c2c1=O &field=half-life at up to 10 µM returns 5.72

* * *

assay: Inhibition of replicating Mycobacterium tuberculosis H37Rv NDH assessed as cell growth inhibition after 7 days by MABA method; conditions: 168 h
pIC50: −log10 of the molar value.
Catalogue of molecules with associated pIC50

- Molecule: "Cc1c(-c2ccc(N3CCCCC3)cc2)[nH]c2cc(Cl)ccc2c1=O"
  pIC50: "< 5.00"
- Molecule: "Cc1c(-c2ccc(N3CC[C@@H]3C(=O)N(C)C)cc2)[nH]c2cc(F)cc(F)c2c1=O"
  pIC50: "< 5.00"
- Molecule: "COc1ccc2c(=O)c(Cl)c(-c3ccc(N4CCC(F)CC4)cc3)[nH]c2c1"
  pIC50: "< 5.00"
- Molecule: "Cc1c(-c2ccc(N3CCC(C)(O)C3)cc2)[nH]c2cc(F)cc(F)c2c1=O (stereo unspecified)"
  pIC50: "< 5.00"

GET /value?item= Cc1c(-c2ccc(-n3cccc3C#N)cc2)[nH]c2cc(F)cc(F)c2c1=O &field=pIC50 returns < 5.00

* * *

assay: Lipophilicity, logD of compound at pH 7.4; settings: buffer
Quantity kind: logD

Before answering, review these 2 worked examples.
- Smiles: "Cc1c(-c2ccc(N3CCC[C@H]3CO)cc2)[nH]c2cc(F)cc(F)c2c1=O"
  logD: "> 3.4"
- Smiles: "Cc1c(-c2ccc(N3CCC[C@H](C)C3)cc2)[nH]c2cc(F)cc(F)c2c1=O"
  logD: "> 3.2"

Now examine the next entry.
GET /value?item= Cc1c(-c2ccc(N3CCC[C@@H]3CO)cc2)[nH]c2cc(F)cc(F)c2c1=O &field=logD returns > 3.4
